These data points were gathered from PubChem BioAssay (NCI).

Exercise: state measured TGI for each of the compounds provided.
# System: ACHN renal
# Measurement Protocol: NCI tumour cell line growth inhibition, 48 h

Compound: Cc1cc(O)c(C(=O)CC2(O)C(=O)Nc3c(Cl)cc(Cl)cc32)c(=O)o1 (centres undefined)
Measured Target: ACHN renal
Result: > 100 µM

Please state TGI for every compound in the list that follows.
1. CC(=O)C1CC2(c3ccc(C)cc3)C(c3ccc(C)cc3)=C(c3ccc(C)cc3)C1(c1ccc(C)cc1)S2=O (centres undefined)
2. CC1(C)OC[C@@H]([C@@]2(CO[Si](C)(C)C(C)(C)C)CC=CC(=O)O2)O1
3. [N-]=[N+]=C(C(=O)OCC#CCOC(=O)C(=[N+]=[N-])S(=O)(=O)c1ccccc1)S(=O)(=O)c1ccccc1

Response line:
["> 100 µM", "51.7 µM", "> 10 µM"]
